# experimental-target: T7 RNA polymerase (Escherichia phage T7, UniProt P00573)
# Sequence (P00573 whole entry): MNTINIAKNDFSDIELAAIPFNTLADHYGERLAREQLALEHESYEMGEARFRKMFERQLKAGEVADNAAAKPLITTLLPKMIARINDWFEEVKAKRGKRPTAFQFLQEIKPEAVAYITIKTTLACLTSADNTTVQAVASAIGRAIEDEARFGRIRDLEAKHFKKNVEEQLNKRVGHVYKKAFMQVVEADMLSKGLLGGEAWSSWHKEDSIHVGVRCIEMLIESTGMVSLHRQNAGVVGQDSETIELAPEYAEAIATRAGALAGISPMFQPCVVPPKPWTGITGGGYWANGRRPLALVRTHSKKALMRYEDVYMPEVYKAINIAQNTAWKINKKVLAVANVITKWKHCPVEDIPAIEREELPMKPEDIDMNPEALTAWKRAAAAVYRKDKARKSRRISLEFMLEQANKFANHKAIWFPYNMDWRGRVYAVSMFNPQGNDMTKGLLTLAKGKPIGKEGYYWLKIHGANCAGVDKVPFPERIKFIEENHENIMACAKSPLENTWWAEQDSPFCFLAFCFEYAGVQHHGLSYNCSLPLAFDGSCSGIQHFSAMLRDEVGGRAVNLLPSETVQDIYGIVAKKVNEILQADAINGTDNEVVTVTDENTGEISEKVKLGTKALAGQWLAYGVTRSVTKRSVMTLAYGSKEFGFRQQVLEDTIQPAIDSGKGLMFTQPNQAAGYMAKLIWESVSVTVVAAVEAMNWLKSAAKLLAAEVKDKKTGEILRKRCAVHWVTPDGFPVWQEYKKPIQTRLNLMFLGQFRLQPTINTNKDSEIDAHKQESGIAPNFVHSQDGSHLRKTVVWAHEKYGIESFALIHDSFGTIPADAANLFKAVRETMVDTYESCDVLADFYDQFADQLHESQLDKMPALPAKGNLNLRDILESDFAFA
# protocol-summary: In vitro transcription yield of mRNA using cap analogs
# Assay type: biochemical
# experimental-parameters: relative to 5227
Please mark Yes if the recorded Increase relative to 5227 (in vitro transcription yield) is equal to or greater than 10%, and No if it falls below.

QUERY: // inclusive: Increase relative to 5227 (in vitro transcription yield) at least 10%? input: COC[C@@H]1[C@H](OP(=O)(O)OC[C@H]2O[C@@H](n3cnc4c(=O)[nH]c(N)nc43)[C@H](O)[C@@H]2O)[C@@H](COP(=O)(O)OP(=O)(O)OP(=O)(O)OC[C@H]2O[C@@H]([n+]3cn(C)c4c(=O)[nH]c(N)nc43)[C@H](O)[C@@H]2O)O[C@H]1n1cnc2c(N)ncnc21 [YK-CAP-113]
RESULT: Yes

QUERY: Subsequent entry: CO[C@@H]1[C@H](OP(=O)(O)OC[C@H]2O[C@@H](n3cnc4c(=O)[nH]c(N)nc43)[C@H](O)[C@@H]2O)[C@@H](COP(=O)(O)OP(=O)(O)OP(=O)(O)OC[C@@]2(OC)O[C@@H]([n+]3cn(C)c4c(=O)[nH]c(N)nc43)[C@H](O)[C@@H]2O)O[C@H]1n1cnc2c(N)ncnc21 [compound 5227, reference compound]
RESULT: No

QUERY: Subsequent entry: CO[C@@H]1[C@H](OP(=O)(O)OC[C@H]2O[C@@H](n3cnc4c(=O)[nH]c(N)nc43)[C@H](O)[C@@H]2O)[C@@H](COP(=O)(O)OP(=O)(O)OP(=O)(O)OC[C@H]2OC([n+]3cn(C)c4c(=O)[nH]c(N)nc43)[C@H](O)[C@@H](O)[C@@H]2O)O[C@H]1n1cnc2c(N)ncnc21 (some centres unmarked) [YK-CAP-101]
RESULT: No

QUERY: Subsequent entry: CO[C@@H]1[C@H](OP(=O)(O)OC[C@H]2O[C@@H](n3cnc4c(=O)[nH]c(N)nc43)[C@H](O)[C@@H]2O)[C@@H](COP(=O)(O)OP(=O)(O)OP(=O)(O)OC[C@H]2O[C@@H]([n+]3cn(C)c4c(=O)[nH]c(N)nc43)[C@H](O)[C@]2(C)C#N)O[C@H]1n1cnc2c(N)ncnc21 [YK-CAP-105]
RESULT: No

QUERY: Subsequent entry: CO[C@@H]1[C@H](OP(=O)(O)OC[C@H]2O[C@@H](n3cnc4c(=O)[nH]c(N)nc43)[C@H](O)[C@@H]2O)[C@@H](COP(=O)(O)OP(=O)(O)OP(=O)(O)OC[C@@]2(C(F)F)O[C@@H]([n+]3cn(C)c4c(=O)[nH]c(N)nc43)[C@H](O)[C@@H]2O)O[C@H]1n1cnc2c(N)ncnc21 [YK-CAP-119]
RESULT: Yes

QUERY: Subsequent entry: COC[C@]1(COP(=O)(O)OP(=O)(O)OP(=O)(O)OC[C@H]2O[C@@H](n3cnc4c(N)ncnc43)[C@H](OC)[C@@H]2OP(=O)(O)OC[C@H]2O[C@@H](n3cnc4c(=O)[nH]c(N)nc43)[C@H](O)[C@@H]2O)O[C@@H]([n+]2cn(C)c3c(=O)[nH]c(N)nc32)[C@H](O)[C@@H]1O [YK-CAP-117]
RESULT: Yes

QUERY: Subsequent entry: CO[C@@H]1[C@H](OP(=O)(O)OC[C@H]2O[C@@H](n3cnc4c(=O)[nH]c(N)nc43)[C@H](O)[C@@H]2O)[C@@H](COP(=O)(O)OP(=O)(O)OP(=O)(O)OC[C@H]2O[C@@H]([n+]3cn(C)c4c(=O)[nH]c(N)nc43)[C@H](O)[C@@H]2C(C)F)O[C@H]1n1cnc2c(N)ncnc21 (some centres unmarked) [YK-CAP-109]
RESULT: Yes

QUERY: Subsequent entry: CO[C@@H]1[C@H](OP(=O)(O)OC[C@H]2O[C@@H](n3cnc4c(=O)[nH]c(N)nc43)[C@H](O)[C@@H]2O)[C@@H](COP(=O)(O)OP(=O)(O)OP(=O)(O)OC[C@H]2O[C@@H]([n+]3cn(C)c4c(=O)[nH]c(N)nc43)[C@H](O)[C@@H]2C(C)NC(C)=O)O[C@H]1n1cnc2c(N)ncnc21 (some centres unmarked) [YK-CAP-108]
RESULT: Yes

QUERY: Subsequent entry: CCN(CC)C(=O)[C@H]1[C@@H](O)[C@H]([n+]2cn(C)c3c(=O)[nH]c(N)nc32)O[C@@H]1COP(=O)(O)OP(=O)(O)OP(=O)(O)OC[C@H]1O[C@@H](n2cnc3c(N)ncnc32)[C@H](OC)[C@@H]1OP(=O)(O)OC[C@H]1O[C@@H](n2cnc3c(=O)[nH]c(N)nc32)[C@H](O)[C@@H]1O [YK-CAP-111]
RESULT: Yes

QUERY: Subsequent entry: CO[C@@H]1[C@H](OP(=O)(O)OC[C@H]2O[C@@H](n3cnc4c(=O)[nH]c(N)nc43)[C@H](O)[C@@H]2O)[C@@H](COP(=O)(O)OP(=O)(O)OP(=O)(O)OC[C@H]2O[C@@H]([n+]3cn(C)c4c(=O)[nH]c(N)nc43)[C@H](O)[C@]2(F)CN(C)C)O[C@H]1n1cnc2c(N)ncnc21 [YK-CAP-104]
RESULT: No

QUERY: Subsequent entry: CO[C@@H]1[C@H](OP(=O)(O)OC[C@H]2O[C@@H](n3cnc4c(=O)[nH]c(N)nc43)[C@H](O)[C@@H]2O)[C@@H](COP(=O)(O)OP(=O)(O)OP(=O)(O)OC[C@H]2O[C@@H]([n+]3cn(C)c4c(=O)[nH]c(N)nc43)[C@H](O)[C@]2(C)NC(C)=O)O[C@H]1n1cnc2c(N)ncnc21 [YK-CAP-106]
RESULT: Yes

QUERY: Subsequent entry: CO[C@@H]1[C@H](OP(=O)(O)OC[C@H]2O[C@@H](n3cnc4c(=O)[nH]c(N)nc43)[C@H](O)[C@@H]2O)[C@@H](COP(=O)(O)OP(=O)(O)OP(=O)(O)OC[C@H]2OC([n+]3cn(C)c4c(=O)[nH]c(N)nc43)[C@H](NC(C)=O)[C@@H](O)[C@@H]2O)O[C@H]1n1cnc2c(N)ncnc21 (some centres unmarked) [YK-CAP-102]
RESULT: No

QUERY: Subsequent entry: CO[C@@H]1[C@H](OP(=O)(O)OC[C@H]2O[C@@H](n3cnc4c(=O)[nH]c(N)nc43)[C@H](O)[C@@H]2O)[C@@H](COP(=O)(O)OP(=O)(O)OP(=O)(O)OC[C@H]2O[C@@H]([n+]3cn(C)c4c(=O)[nH]c(N)nc43)[C@H](O)[C@@H]2C(F)F)O[C@H]1n1cnc2c(N)ncnc21 [YK-CAP-110]
RESULT: Yes

QUERY: Subsequent entry: COC1[C@H](n2cnc3c(N)ncnc32)O[C@H](COP(=O)(O)OP(=O)(O)OP(=O)(O)OC[C@@]23COC([C@H]([n+]4cn(C)c5c(=O)[nH]c(N)nc54)O2)[C@H]3O)[C@H]1OP(=O)(O)OCC1OC(n2cnc3c(=O)[nH]c(N)nc32)C(O)C1O (some centres unmarked) [Compound 14, reference compound]
RESULT: No
